The measurements presented in this section are drawn from ChEMBL document CHEMBL2385018.

experiment: Selectivity ratio of IC50 for electric eel AChE to IC50 for equine serum BuChE
Classes by Ratio IC50: low group: < 1; middle group: ≥ 1 and < 10; high group: ≥ 10

compound="O=C1NC2=C(CNC/C2=C\\c2ccccc2Cl)C(c2ccccc2Cl)N1 (stereo not given)" group_label="middle group"
compound="Fc1ccc(/C=C2\\CNCC3=C2NC(=S)NC3c2ccc(F)cc2)cc1 (stereo not given)" group_label="middle group"
compound="O=C1NC2=C(CNC/C2=C\\c2ccccc2)C(c2ccccc2)N1 (stereo not given)" group_label="high group"
compound="S=C1NC2=C(CNC/C2=C\\c2ccc(Cl)cc2)C(c2ccc(Cl)cc2)N1 (stereo not given)" group_label="low group"
compound="O=C1NC2=C(CNC/C2=C\\c2ccccc2F)C(c2ccccc2F)N1 (stereo not given)" group_label="middle group"
compound="O=C1NC2=C(CNC/C2=C\\c2ccc(Cl)cc2Cl)C(c2ccc(Cl)cc2Cl)N1 (stereo not given)" group_label="middle group"
compound="COc1ccccc1/C=C1\\CNCC2=C1NC(=S)NC2c1ccccc1OC (stereo not given)" group_label="low group"
compound="O=C1NC2=C(CNC/C2=C\\c2cccc3ccccc23)C(c2cccc3ccccc23)N1 (stereo not given)" group_label="middle group"
compound="S=C1NC2=C(CNC/C2=C\\c2ccccc2Cl)C(c2ccccc2Cl)N1 (stereo not given)" group_label="high group"
compound="Cc1ccccc1/C=C1\\CNCC2=C1NC(=S)NC2c1ccccc1C (stereo not given)" group_label="high group"

----------
assay: Selectivity ratio of IC50 for equine serum BuChE to IC50 for electric eel AChE
endpoint: Ratio IC50

molecule="O=C1NC2=C(CNC/C2=C\\c2ccccc2)C(c2ccccc2)N1 (stereo not given)" data_value=0.04
molecule="COc1ccccc1/C=C1\\CNCC2=C1NC(=O)NC2c1ccccc1OC (stereo not given)" data_value=0.27
molecule="O=C1NC2=C(CNC/C2=C\\c2ccc(Cl)cc2Cl)C(c2ccc(Cl)cc2Cl)N1 (stereo not given)" data_value=0.79
molecule="S=C1NC2=C(CNC/C2=C\\c2ccccc2)C(c2ccccc2)N1 (stereo not given)" data_value=0.2
molecule="O=C1NC2=C(CNC/C2=C\\c2ccc(F)cc2)C(c2ccc(F)cc2)N1 (stereo not given)" data_value=0.43

----------
target: Cholinesterase (Equus caballus, UniProt P81908); test: Inhibition of equine serum BuChE using S-butyrylthiocholine chloride as substrate incubated for 15 mins prior to substrate addition measured after 30 mins by Ellman's method
pIC50: −log10 of the molar value.
endpoint: pIC50

compound="O=C1NC2=C(CNC/C2=C\\c2cccc3ccccc23)C(c2cccc3ccccc23)N1 (stereo not drawn)" assay_system="Cholinesterase (Equus caballus, UniProt P81908)" data_value=5.27
compound="S=C1NC2=C(CNC/C2=C\\c2cccc3ccccc23)C(c2cccc3ccccc23)N1 (stereo not drawn)" assay_system="Cholinesterase (Equus caballus, UniProt P81908)" data_value=5.25
compound="Cc1ccc(/C=C2\\CNCC3=C2NC(=S)NC3c2ccc(C)cc2)cc1 (stereo not drawn)" assay_system="Cholinesterase (Equus caballus, UniProt P81908)" data_value=5.20

----------
target: Cholinesterase (Equus caballus) (UniProt P81908); assay: Selectivity ratio of Galanthamine IC50 to compound IC50 for equine BChE
Sequence (P81908 whole entry): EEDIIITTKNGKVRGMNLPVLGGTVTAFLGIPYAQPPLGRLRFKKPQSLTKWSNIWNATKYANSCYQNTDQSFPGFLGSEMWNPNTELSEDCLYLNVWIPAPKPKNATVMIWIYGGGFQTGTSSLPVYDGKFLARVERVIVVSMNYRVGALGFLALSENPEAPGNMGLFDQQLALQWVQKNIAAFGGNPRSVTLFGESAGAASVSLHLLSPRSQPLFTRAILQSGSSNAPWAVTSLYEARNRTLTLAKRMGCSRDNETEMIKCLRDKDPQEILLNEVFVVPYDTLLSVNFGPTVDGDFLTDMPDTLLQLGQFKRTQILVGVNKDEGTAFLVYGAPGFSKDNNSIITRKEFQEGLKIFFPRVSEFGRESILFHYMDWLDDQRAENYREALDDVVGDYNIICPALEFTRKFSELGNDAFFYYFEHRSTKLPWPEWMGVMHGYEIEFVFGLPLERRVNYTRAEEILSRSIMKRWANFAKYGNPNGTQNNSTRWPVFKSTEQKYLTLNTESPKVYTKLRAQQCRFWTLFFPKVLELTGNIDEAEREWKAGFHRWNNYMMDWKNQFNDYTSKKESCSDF
endpoint: Ratio IC50

compound="S=C1NC2=C(CNC/C2=C\\c2ccc(Br)cc2)C(c2ccc(Br)cc2)N1 (centres undefined)" endpoint="Ratio IC50" data_value=12
compound="O=C1NC2=C(CNC/C2=C\\c2ccc(Br)cc2)C(c2ccc(Br)cc2)N1 (centres undefined)" endpoint="Ratio IC50" data_value=2
compound="O=C1NC2=C(CNC/C2=C\\c2ccccc2Cl)C(c2ccccc2Cl)N1 (centres undefined)" endpoint="Ratio IC50" data_value=2
compound="S=C1NC2=C(CNC/C2=C\\c2ccc(Cl)cc2Cl)C(c2ccc(Cl)cc2Cl)N1 (centres undefined)" endpoint="Ratio IC50" data_value=2

----------
In this section, each of the compounds is paired with its reported Ratio IC50.
assay: Selectivity ratio of IC50 for equine serum BuChE to IC50 for electric eel AChE
endpoint: Ratio IC50

compound="S=C1NC2=C(CNC/C2=C\\c2ccccc2Cl)C(c2ccccc2Cl)N1 (centres undefined)" endpoint="Ratio IC50" data_value=0.09
compound="O=C1NC2=C(CNC/C2=C\\c2cccc3ccccc23)C(c2cccc3ccccc23)N1 (centres undefined)" endpoint="Ratio IC50" data_value=0.41
compound="Fc1ccccc1/C=C1\\CNCC2=C1NC(=S)NC2c1ccccc1F (centres undefined)" endpoint="Ratio IC50" data_value=0.16
compound="S=C1NC2=C(CNC/C2=C\\c2ccc(Br)cc2)C(c2ccc(Br)cc2)N1 (centres undefined)" endpoint="Ratio IC50" data_value=0.14
compound="S=C1NC2=C(CNC/C2=C\\c2ccc(Cl)cc2Cl)C(c2ccc(Cl)cc2Cl)N1 (centres undefined)" endpoint="Ratio IC50" data_value=1.5
compound="S=C1NC2=C(CNC/C2=C\\c2ccc(Cl)cc2)C(c2ccc(Cl)cc2)N1 (centres undefined)" endpoint="Ratio IC50" data_value=2.78
compound="O=C1NC2=C(CNC/C2=C\\c2ccc(Cl)cc2)C(c2ccc(Cl)cc2)N1 (centres undefined)" endpoint="Ratio IC50" data_value=0.45
compound="COc1ccccc1/C=C1\\CNCC2=C1NC(=S)NC2c1ccccc1OC (centres undefined)" endpoint="Ratio IC50" data_value=1.47
compound="O=C1NC2=C(CNC/C2=C\\c2ccc(Br)cc2)C(c2ccc(Br)cc2)N1 (centres undefined)" endpoint="Ratio IC50" data_value=0.39

----------
In this section, each of the molecules is paired with its reported Ratio IC50.
test: Selectivity ratio of IC50 for electric eel AChE to IC50 for equine serum BuChE
endpoint: Ratio IC50

molecule="Cc1ccc(/C=C2\\CNCC3=C2NC(=S)NC3c2ccc(C)cc2)cc1 (centres undefined)" data_value=5.95
molecule="Cc1ccccc1/C=C1\\CNCC2=C1NC(=O)NC2c1ccccc1C (centres undefined)" data_value=7.74
molecule="O=C1NC2=C(CNC/C2=C\\c2ccc(F)cc2)C(c2ccc(F)cc2)N1 (centres undefined)" data_value=2.34
molecule="S=C1NC2=C(CNC/C2=C\\c2ccc(Cl)cc2Cl)C(c2ccc(Cl)cc2Cl)N1 (centres undefined)" data_value=0.67

----------
target: Cholinesterase (Equus caballus, UniProt P81908); assay: Inhibition of equine serum BuChE using S-butyrylthiocholine chloride as substrate incubated for 15 mins prior to substrate addition measured after 30 mins by Ellman's method
endpoint: IC50 (µM)

molecule="O=C1NC2=C(CNC/C2=C\\c2cccc([N+](=O)[O-])c2)C(c2cccc([N+](=O)[O-])c2)N1 (stereo not drawn)" endpoint=IC50 data_value=10.3
molecule="O=[N+]([O-])c1cccc(/C=C2\\CNCC3=C2NC(=S)NC3c2cccc([N+](=O)[O-])c2)c1 (stereo not drawn)" endpoint=IC50 data_value=8.09
molecule="COc1ccccc1/C=C1\\CNCC2=C1NC(=O)NC2c1ccccc1OC (stereo not drawn)" endpoint=IC50 data_value=10.7

----------
pIC50: −log10 of the molar value.
Reported pIC50, Acetylcholinesterase (Electrophorus electricus).
endpoint: pIC50

molecule="O=C1NC2=C(CNC/C2=C\\c2ccccc2F)C(c2ccccc2F)N1 (centres undefined)" endpoint=pIC50 data_value=4.73
molecule="O=C1NC2=C(CNC/C2=C\\c2ccc(F)cc2)C(c2ccc(F)cc2)N1 (centres undefined)" endpoint=pIC50 data_value=4.35
molecule="O=C1NC2=C(CNC/C2=C\\c2ccccc2Cl)C(c2ccccc2Cl)N1 (centres undefined)" endpoint=pIC50 data_value=4.62
molecule="S=C1NC2=C(CNC/C2=C\\c2ccccc2)C(c2ccccc2)N1 (centres undefined)" endpoint=pIC50 data_value=4.72
molecule="S=C1NC2=C(CNC/C2=C\\c2cccc3ccccc23)C(c2cccc3ccccc23)N1 (centres undefined)" endpoint=pIC50 data_value=5.86
molecule="S=C1NC2=C(CNC/C2=C\\c2ccccc2Cl)C(c2ccccc2Cl)N1 (centres undefined)" endpoint=pIC50 data_value=4.49
molecule="O=C1NC2=C(CNC/C2=C\\c2ccc(Cl)cc2)C(c2ccc(Cl)cc2)N1 (centres undefined)" endpoint=pIC50 data_value=4.43
molecule="Cc1ccccc1/C=C1\\CNCC2=C1NC(=S)NC2c1ccccc1C (centres undefined)" endpoint=pIC50 data_value=4.40
molecule="O=C1NC2=C(CNC/C2=C\\c2ccccc2)C(c2ccccc2)N1 (centres undefined)" endpoint=pIC50 data_value=4.16
molecule="O=C1NC2=C(CNC/C2=C\\c2ccc(Br)cc2)C(c2ccc(Br)cc2)N1 (centres undefined)" endpoint=pIC50 data_value=4.80
molecule="Cc1ccccc1/C=C1\\CNCC2=C1NC(=O)NC2c1ccccc1C (centres undefined)" endpoint=pIC50 data_value=4.39
molecule="Fc1ccccc1/C=C1\\CNCC2=C1NC(=S)NC2c1ccccc1F (centres undefined)" endpoint=pIC50 data_value=4.39
molecule="COc1ccccc1/C=C1\\CNCC2=C1NC(=S)NC2c1ccccc1OC (centres undefined)" endpoint=pIC50 data_value=6.10
molecule="Cc1ccc(/C=C2\\CNCC3=C2NC(=S)NC3c2ccc(C)cc2)cc1 (centres undefined)" endpoint=pIC50 data_value=4.43
